Catalogue of compounds with associated IC50
biological target: PGD2 Receptor (Homo sapiens, UniProt Q13258); construct: endogenous in cells; host or cells: washed human platelets from a healthy volunteer; experiment: Binding to PGD2 Receptor (human platelet membrane fraction, [3H]PGD2); details: 5 nM [3H]PGD2, pH 7.4, 4° C., 90 min, read-out: Inhibitory activity IC50
Sequence (Q13258 whole entry): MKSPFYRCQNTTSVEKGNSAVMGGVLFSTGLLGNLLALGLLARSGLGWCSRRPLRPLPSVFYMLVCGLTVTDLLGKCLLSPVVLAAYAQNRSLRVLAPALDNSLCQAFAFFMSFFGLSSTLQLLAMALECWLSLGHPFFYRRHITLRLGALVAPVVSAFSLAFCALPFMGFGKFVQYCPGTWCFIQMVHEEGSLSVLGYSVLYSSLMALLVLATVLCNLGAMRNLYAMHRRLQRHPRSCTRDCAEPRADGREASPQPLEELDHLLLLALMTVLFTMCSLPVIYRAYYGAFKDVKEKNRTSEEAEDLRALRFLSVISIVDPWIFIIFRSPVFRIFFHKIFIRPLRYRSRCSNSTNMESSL

smiles_text: O=C(O)CCC/C=C\C[C@H]1[C@@H]2CC[C@@H](C2)[C@@H]1NC(=O)c1csc2ccccc12
tested_target: PGD2 Receptor (Homo sapiens, UniProt Q13258)
IC50: 8.2 nM

smiles_text: O=C(O)CCC/C=C\C[C@@H]1[C@H]2CC[C@H](C2)[C@H]1NC(=O)c1csc2ccc(O)cc12
tested_target: PGD2 Receptor (Homo sapiens, UniProt Q13258)
IC50: 5.5 nM

smiles_text: O=C(O)CCC/C=C\C[C@H]1[C@@H]2CC[C@@H](C2)[C@@H]1NC(=O)c1cccc2ccsc12
tested_target: PGD2 Receptor (Homo sapiens, UniProt Q13258)
IC50: 87 nM
